- run.conditions: in water, 308.2 K
value.type: solubility (mole fraction)
Please give the numeric answer without any surrounding text.

Task: Using the record for O=C1NC(=O)C(c2ccccc2)(c2ccccc2)N1 , report its solubility (mole fraction).
Output: 2.64e-06

###

- run.conditions: in n-propanol, 303.2 K
value.type: solubility (mole fraction)
Please give the numeric answer without any surrounding text.

Task: Using the record for O=C1NC(=O)C(c2ccccc2)(c2ccccc2)N1 , report its solubility (mole fraction).
Output: 0.00329

###

- run.conditions: in water, 313.2 K
value.type: solubility (mole fraction)
Please give the numeric answer without any surrounding text.

Task: Using the record for O=C1NC(=O)C(c2ccccc2)(c2ccccc2)N1 , report its solubility (mole fraction).
Output: 2.94e-06
